- target or test system: UniProt:P23977
- test method notes: Dopamine reuptake ([^3H]dopamine uptake) inhibition in rat brain synaptosomes
- applied conditions: DA Uptake EC50 (nM ± SD), rat caudate synaptosomes; 5 nM [^3H]dopamine; 15 min, 25° C.; three experiments pooled
Group membership follows IC50 per the scheme lower segment (below 20 nM), middle segment (20 nM to below 200 nM), upper segment (200 nM or more)

c1ccc(C(CNc2nc(-c3cccc4ncccc34)nc3ccccc23)c2ccccc2)cc1 [compound 49]; middle segment
COC(CNc1nc(-c2cn3ccnc3cc2C)nc2ccccc12)c1ccccc1 (stereo not shown) [compound 187]; lower segment
c1ccc(C(CNc2nc(N3Cc4ccccc4C3)nc3ccccc23)c2ccccc2)cc1 [compound 189]; middle segment
OC(CNc1nc(-c2ccc3nccn3c2)nc2ccccc12)(c1ccccc1)c1ccccc1 [compound 96]; lower segment
Cn1cc(-c2nc(NCC(c3ccccc3)c3ccccc3)c3ccccc3n2)cn1 [compound 76]; middle segment
c1ccc(CC(Nc2nc(-c3ccc4nccn4c3)nc3ccccc23)c2ccccc2)cc1 (stereo not shown) [compound 165]; lower segment
CC(C)(C)OC(=O)n1cnc2cc(-c3nc(NCC(c4ccccc4)c4ccccc4)c4ccccc4n3)ccc21 [compound 62]; upper segment
Cc1cc2nccn2cc1-c1nc(NCC(C)c2ccccc2)c2ccccc2n1 (stereo not shown) [compound 184]; lower segment
c1ccc(C(CNc2nc(-c3cccc4[nH]ncc34)nc3ccccc23)c2ccccc2)cc1 [compound 35]; upper segment
COc1ccc(C(CNc2nc(-c3ccc4nccn4c3)nc3ccccc23)C2(O)CCCCC2)cc1 (stereo not shown) [compound 153]; middle segment
CC(C)C(CNc1nc(N2CCc3[nH]ccc3C2)nc2ccccc12)c1ccccc1 (stereo not shown) [compound 201]; lower segment
CC(C)(C)OC(=O)Nc1ncc(-c2nc(NCC(c3ccccc3)c3ccccc3)c3ccccc3n2)cn1 [compound 43]; upper segment
c1ccc(C(CNc2nc(-c3cncnc3)nc3ccccc23)c2ccccc2)cc1 [compound 18]; middle segment
c1ccc(CC(CNc2nc(-c3cnc4nccn4c3)nc3ccccc23)c2ccccc2)cc1 (stereo not shown) [compound 142]; lower segment
Cc1cc2nccn2cc1-c1nc(NCC(Cc2ccccc2)Cc2ccccc2)c2ccccc2n1 [compound 182]; lower segment
c1ccc(C(CNc2nc(-c3ccc4[nH]nnc4c3)nc3ccccc23)c2ccccc2)cc1 [compound 63]; middle segment
c1ccc(C(CNc2nc(-c3cnc4nccn4c3)nc3ccccc23)N2CCCCC2)cc1 (stereo not shown) [compound 120]; middle segment
CN(C)Cc1c[nH]c2ccc(-c3nc(NCC(c4ccccc4)c4ccccc4)c4ccccc4n3)cc12 [compound 111]; upper segment
c1ccc(C(CNc2nc(-c3ccc4ncnn4c3)nc3ccccc23)c2cccnc2)cc1 (stereo not shown) [compound 132]; middle segment
c1ccc(C(CNc2nc(N3CCc4[nH]c5ccccc5c4C3)nc3ccccc23)c2ccccc2)cc1 [compound 191]; lower segment
COc1cc2nc(-c3cccnc3)nc(NCC(c3ccccc3)c3ccccc3)c2cc1OC [compound 28]; upper segment
c1ccc(C(CNc2nc(-c3ccc4nccn4c3)nc3ccccc23)c2ccncc2)cc1 (stereo not shown) [compound 106]; lower segment
Cc1cc2nccn2cc1-c1nc(NCC(C)(c2ccccc2)c2ccccc2)c2ccccc2n1 [compound 178]; lower segment
COc1ccc2nc(-c3cnc(N(C)C)nc3)nc(NCC(c3ccccc3)c3ccccc3)c2c1 [compound 60]; upper segment
c1ccc(C(CNc2nc(-c3cn[nH]c3)nc3ccccc23)c2ccccc2)cc1 [compound 75]; middle segment
c1ccc(C(CNc2nc(-n3ccnc3)nc3ccccc23)c2ccccc2)cc1 [compound 48]; middle segment
c1ccc(C2CN(c3nc(-c4ccc5nccn5c4)nc4ccccc34)Cc3ccccc32)cc1 (stereo not shown) [compound 135]; upper segment
Cc1cc2nccn2cc1-c1nc(NCCc2ccccn2)c2ccccc2n1 [compound 183]; upper segment
c1ccc(CCNc2nc(-c3ccc4nccn4c3)nc3ccccc23)cc1 [compound 161]; middle segment
Cc1cc2nccn2cc1-c1nc(NCC(O)c2ccccc2)c2ccccc2n1 (stereo not shown) [compound 186]; lower segment
c1ccc(C(CNc2nc(-c3cnc(N4CCCCC4)nc3)nc3ccccc23)c2ccccc2)cc1 [compound 38]; upper segment

---

- target or test system: dopamine transporter (DAT) (Rattus norvegicus)
- Sequence (P23977 whole entry): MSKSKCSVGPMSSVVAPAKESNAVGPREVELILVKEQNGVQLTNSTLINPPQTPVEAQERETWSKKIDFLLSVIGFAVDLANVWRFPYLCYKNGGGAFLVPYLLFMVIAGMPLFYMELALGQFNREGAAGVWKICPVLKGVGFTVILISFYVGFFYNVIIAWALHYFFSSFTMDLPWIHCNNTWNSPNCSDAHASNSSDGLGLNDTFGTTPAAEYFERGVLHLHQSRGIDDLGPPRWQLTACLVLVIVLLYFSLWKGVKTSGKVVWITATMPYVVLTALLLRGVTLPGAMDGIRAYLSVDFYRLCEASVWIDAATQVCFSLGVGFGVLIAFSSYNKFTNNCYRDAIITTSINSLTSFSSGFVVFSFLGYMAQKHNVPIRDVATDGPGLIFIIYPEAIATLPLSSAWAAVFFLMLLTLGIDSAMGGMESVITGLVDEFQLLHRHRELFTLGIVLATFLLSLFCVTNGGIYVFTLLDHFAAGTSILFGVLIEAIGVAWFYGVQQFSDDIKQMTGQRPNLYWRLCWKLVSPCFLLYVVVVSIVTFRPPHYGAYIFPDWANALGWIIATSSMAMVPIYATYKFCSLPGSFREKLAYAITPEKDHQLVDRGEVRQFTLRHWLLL
- test method notes: Dopamine reuptake ([^3H]dopamine uptake) inhibition in rat brain synaptosomes
- applied conditions: read-out: DA Uptake Emax (% I ± SD)
quantity name: Emax (%)

Cc1cc2nccn2cc1-c1nc(NCC(C)c2ccccc2)c2ccccc2n1 (stereo not drawn) [compound 184]; 81
Cc1cc2nccn2cc1-c1nc(NCC(c2ccccc2)C2CC2)c2ccccc2n1 (stereo not drawn) [compound 179]; 80

---

- target or test system: serotonin transporter (SERT) (Rattus norvegicus)
- Construct: Freshly removed whole brain minus cerebellum and caudate was homogenized; from tissue; host or cells: rat whole brain minus cerebellum and caudate, synaptosomes
- test method notes: Serotonin reuptake ([^3H]serotonin uptake) inhibition in rat brain synaptosomes
- Type: biochemical
- applied conditions: mean ± S.D., n = 3; read-out: SERT Uptake IC50
pIC50: −log10 of the molar value.
Consider the following molecules and their measured pIC50 readings.
quantity name: pIC50

c1ccc(C(CNc2nc(-c3ccc4nccn4c3)nc3ccccc23)c2ccccc2)cc1; 7.64
CNc1ncc(-c2nc(NCC(c3ccccc3)c3ccccc3)c3ccccc3n2)cn1; 7.24
CN(C)c1ccc(-c2nc(NCC(c3ccccc3)c3ccccc3)c3ccccc3n2)cc1; 7.31

---

Consider the following molecules and their measured melting point readings.
quantity name: melting point

CS(=O)(=O)n1ccc2cc(-c3nc(NCC(c4ccccc4)c4ccccc4)c4ccccc4n3)ccc21; 144 to 146 °C
Cc1cc2nccn2cc1-c1nc(NC(Cc2ccccc2)c2ccccc2)c2ccccc2n1 (stereo not shown); 87 to 89 °C
COc1ccc(C(CNc2nc(-c3ccc4nccn4c3)nc3ccccc23)C2(O)CCCCC2)cc1 (stereo not shown); 247 to 249 °C
Cc1cc2nccn2cc1-c1nc(NC[C@H](c2ccccc2)n2cccc2)c2ccccc2n1; 196 to 198 °C

---

Consider the following molecules and their measured IC50 readings.
- target or test system: dopamine transporter (DAT) (Rattus norvegicus)
- test method notes: Dopamine reuptake ([^3H]dopamine uptake) inhibition in rat brain synaptosomes
- applied conditions: IC50 for DAT Uptake Inhibition, rounded value as listed in Table 10
quantity name: IC50 (nM)

c1ccc(C(CNc2nc(-c3cnc4nccn4c3)nc3ccccc23)c2ccncc2)cc1 (stereo not drawn) [compound 110]; 6
c1ccc(C(CNc2nc(-c3ccc4[nH]ccc4c3)nc3ccccc23)c2ccccc2)cc1 [compound 17]; 10
Cl.Fc1ccc2c(NCC(c3ccccc3)c3ccccc3)nc(-c3ccc4nccn4c3)nc2c1 [compound 124, Hydrochloride]; 7
CN(C)c1ncc(-c2nc(NCC(c3ccccc3)c3ccccc3)c3ccccc3n2)cn1 [compound 16]; 20
CS(=O)(=O)Nc1ccc(-c2nc(NCC(c3ccccc3)c3ccccc3)c3ccccc3n2)cc1 [SRI-29577]; 4
c1ccc(C(CNc2nc(-c3ccc4ncnn4c3)nc3ccccc23)c2ccccc2)cc1 [compound 105]; 9
Cc1cc2nccn2cc1-c1nc(NCC(c2ccccc2)c2ccncc2)c2ccccc2n1 (stereo not drawn) [compound 151]; 2
c1ccc(C(CNc2nc(-c3ccc4nccn4c3)nc3ccccc23)c2ccccc2)cc1 [compound 55]; 2
CN(C)c1ccc(-c2nc(NCC(c3ccccc3)c3ccccc3)c3ccccc3n2)cc1 [SRI-29786]; 7

---

- target or test system: serotonin transporter (SERT) (Rattus norvegicus, UniProt P31652)
- Construct: Freshly removed whole brain minus cerebellum and caudate was homogenized; from tissue; host or cells: rat whole brain minus cerebellum and caudate, synaptosomes
- Sequence (P31652 whole entry): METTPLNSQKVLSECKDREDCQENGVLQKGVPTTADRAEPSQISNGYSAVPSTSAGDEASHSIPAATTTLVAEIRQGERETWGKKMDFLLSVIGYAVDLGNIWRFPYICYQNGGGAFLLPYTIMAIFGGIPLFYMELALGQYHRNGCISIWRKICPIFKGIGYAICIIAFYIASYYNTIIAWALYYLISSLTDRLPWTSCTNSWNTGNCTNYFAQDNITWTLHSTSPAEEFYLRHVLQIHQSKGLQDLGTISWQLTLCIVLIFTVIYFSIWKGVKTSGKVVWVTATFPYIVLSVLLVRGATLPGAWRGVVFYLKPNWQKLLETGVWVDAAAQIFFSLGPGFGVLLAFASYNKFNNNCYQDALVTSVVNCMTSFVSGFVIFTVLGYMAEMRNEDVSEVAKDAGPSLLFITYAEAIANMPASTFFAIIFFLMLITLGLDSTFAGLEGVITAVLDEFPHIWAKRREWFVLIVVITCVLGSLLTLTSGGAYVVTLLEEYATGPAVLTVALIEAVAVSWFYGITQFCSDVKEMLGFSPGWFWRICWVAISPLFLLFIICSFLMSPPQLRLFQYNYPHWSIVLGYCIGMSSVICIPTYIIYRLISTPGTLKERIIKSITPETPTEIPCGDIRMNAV
- test method notes: Serotonin reuptake ([^3H]serotonin uptake) inhibition in rat brain synaptosomes
- Assay type: biochemical
- applied conditions: mean ± S.D., n = 3; read-out: SERT Uptake Emax
quantity name: Emax

Cn1cc2cc(-c3nc(NCC(c4ccccc4)c4ccccc4)c4ccccc4n3)ccc2n1; 61%
CN(C)c1ncc(-c2nc(NCC(O)(c3ccccc3)c3ccccc3)c3ccccc3n2)cn1; 51%
OC(CNc1nc(-c2cnc3nccn3c2)nc2ccccc12)(c1ccccc1)c1ccccc1; 56%
c1ccc(C(CNc2nc(-c3ccc4[nH]ccc4c3)nc3ccccc23)c2ccccc2)cc1; 54%
CN(C)c1ncc(-c2nc(NCC(c3ccccc3)c3ccccc3)c3ccccc3n2)cn1; 55%
c1ccc(C(CNc2nc(-c3ccc4nccn4c3)nc3ccccc23)c2ccc[nH]2)cc1 (stereo not shown); 56%
CN(C)c1ccc(-c2nc(NCC(c3ccccc3)c3ccccc3)c3ccccc3n2)cn1; 51%

---

Consider the following compounds and their measured NET Uptake Emax readings.
- target or test system: UniProt:Q9WTR4
- test method notes: Norepinephrine reuptake ([^3H]norepinephrine uptake) inhibition in rat brain synaptosomes
- applied conditions: mean ± S.D., n = 3
quantity name: NET Uptake Emax (%)

CN(C)c1ncc(-c2nc(NCC(O)(c3ccccc3)c3ccccc3)c3ccccc3n2)cn1; 71
c1ccc(C(CNc2nc(-c3cnc4nccn4c3)nc3ccccc23)C2CCCCC2)cc1 (stereo not drawn); 70
Cc1cc(NS(C)(=O)=O)ccc1-c1nc(NCC(c2ccccc2)c2ccncc2)c2ccccc2n1 (stereo not drawn); 71
CS(=O)(=O)Nc1ccc(-c2nc(NCC(O)(c3ccccc3)c3ccccc3)c3ccccc3n2)cc1; 70
c1ccc(C(CNc2nc(-c3ccc4[nH]ccc4c3)nc3ccccc23)c2ccccc2)cc1; 70
c1ccc(C(CNc2nc(-c3ccc4nccn4c3)nc3ccccc23)c2ccccc2)cc1; 72
Cc1cc2nccn2cc1-c1nc(NCC(O)(c2ccccc2)c2ccccc2)c2ccccc2n1; 69
CS(=O)(=O)Nc1ccc(-c2nc(NCC(c3ccccc3)c3ccccc3)c3ccccc3n2)c(Cl)c1; 67
CN(C)c1ccc(-c2nc(NCC(c3ccccc3)c3ccccc3)c3ccccc3n2)cn1; 71
CSc1ncc(-c2nc(NCC(c3ccccc3)c3ccccc3)c3ccccc3n2)cn1; 62
c1ccc(C(CNc2nc(-c3ccc4nccn4c3)nc3ccccc23)c2ccc[nH]2)cc1 (stereo not drawn); 81
OC(CNc1nc(-c2ccc3[nH]ccc3c2)nc2ccccc12)(c1ccccc1)c1ccccc1; 73
Cn1cc2cc(-c3nc(NCC(c4ccccc4)c4ccccc4)c4ccccc4n3)ccc2n1; 71
Cl.Fc1ccc2c(NCC(c3ccccc3)c3ccccc3)nc(-c3ccc4nccn4c3)nc2c1; 63
CN(C)c1ccc(-c2nc(NCC(c3ccccc3)c3ccccc3)c3ccccc3n2)cc1; 68
Cc1cc2nccn2cc1-c1nc(NCC(c2ccccc2)c2ccccc2)c2ccccc2n1; 67
CN(C)c1ncc(-c2nc(NCC(c3ccccc3)c3ccccc3)c3ccccc3n2)cn1; 73
c1ccc(C(CNc2nc(-c3cnc4nccn4c3)nc3ccccc23)c2ccccc2)cc1; 69
c1ccc(C(CNc2nc(-c3ccc4ncnn4c3)nc3ccccc23)c2ccccc2)cc1; 40
Cc1cc(NS(C)(=O)=O)ccc1-c1nc(NCC(c2ccccc2)c2ccccc2)c2ccccc2n1; 65
c1ccc(C(CNc2nc(-c3ccc4nccn4c3)nc3ccccc23)C2CCCCC2)cc1 (stereo not drawn); 65
c1ccc(C(CNc2nc(-c3cnc4nccn4c3)nc3ccccc23)c2ccncc2)cc1 (stereo not drawn); 69
CS(=O)(=O)Nc1ccc(-c2nc(NCC(c3ccccc3)c3ccccc3)c3ccccc3n2)cc1; 71
Cc1cc2nccn2cc1-c1nc(NCC(c2ccccc2)c2ccc[nH]2)c2ccccc2n1 (stereo not drawn); 70
